target: T1, Cbz-Ala-Ala-AAsn-CH═CH-CON(Bzl)2
T1 chain: AAN

[
  {
    "Protein": "Caspase-6 (protein) AFYKREMFDPAEKYKMDHRRRGIALIFNHERFFWHLTLPERRGTCADRDNLTRRFSDLGFEVKCFNDLKAEELLLKIHEVSTVSHADADCFVCVFLSHGEGNHIYAYDAKIEIQTLTGLFKGDKCHSLVGKPKIFIIQACRGNQHDVPVIPLDVVDNQTEKLDTNITEVDAASVYTLPAGADFLMCYSVAEGYYSHRETVNGSWYIQDLCEMLGKYGSSLEFTELLTLVNRKVSQRRVDFCKDPSAIGKKQVPCFASMLTKKLHFFPKSN",
    "kobs/[I]": "NI"
  },
  {
    "Protein": "Caspase-3 (protein) SGISLDNSYKMDYPEMGLCIIINNKNFHKSTGMTSRSGTDVDAANLRETFRNLKYEVRNKNDLTREEIVELMRDVSKEDHSKRSSFVCVLLSHGEEGIIFGTNGPVDLKKITNFFRGDRCRSLTGKPKLFIIQACRGTELDCGIETDSGVDDDMACHKIPVEADFLYAYSTAPGYYSWRNSKDGSWFIQSLCAMLKQYADKLEFMHILTRVNRKVATEFESFSFDATFHAKKQIPCIVSMLTKELYFYH",
    "kobs/[I]": "NI"
  },
  {
    "Protein": "Caspase-8 (protein) SESQTLDKVYQMKSKPRGYCLIINNHNFAKAREKVPKLHSIRDRNGTHLDAGALTTTFEELHFEIKPHDDCTVEQIYEILKIYQLMDHSNMDCFICCILSHGDKGIIYGTDGQEAPIYELTSQFTGLKCPSLAGKPKVFFIQACQGDNYQKGIPVETDSEEQPYLEMDLSSPQTRYIPDEADFLLGMATVNNCVSYRNPAEGTWYIQSLCQSLRERCPRGDDILTILTEVNYEVSNKDDKKNMGKQMPQPTFTLRKKLVFPSD",
    "kobs/[I]": "NI"
  }
]
